The values you see were collected from patent US11999727B2.

Target: PRMT5 (Homo sapiens)
Construct: purchased Viva (custom protein)
Assay: PRMT5 biochemical IC50 assay with MTA as cofactor
Details: PRMT5, MTA as cofactor; read-out: MTA IC50
quantityKind: IC50

Examples with answers:
>>> experimentalvalue("Cc1cc(NC(=O)C(=O)N2CCCC[C@H]2c2cccnc2)cnc1N (single isomer, unassigned) [Compound 69]")
"< 50 nM"
>>> experimentalvalue("Cc1cc(NC(=O)C(=O)N2C[C@H](C)CC[C@H]2c2ccc3c(c2)C(=O)NC3)cnc1N (single isomer, unassigned) [Compound 656]")
"> 500 nM"

Attention now turns to another entry.
Inquiry: What measured IC50 goes with CCc1cc(NC(=O)C(=O)N2C[C@H](C)CC[C@H]2c2cc3cn[nH]c3s2)cnc1N (single isomer, unassigned) [Compound 1055] ?
Reply text: > 500 nM

---

Listed here: items and their measured pIC50.
Biological target: PRMT5 (Homo sapiens)
Construct: purchased Viva (custom protein)
Assay: PRMT5 biochemical IC50 assay with MTA as cofactor
Conditions: PRMT5, MTA as cofactor; read-out: MTA IC50
pIC50: −log10 of the molar value.

>>> experimentalvalue("Cc1cc(NC(=O)C(=O)N2C[C@H](C)[C@H](CC(C)C)C[C@H]2c2ccc3scnc3c2)cnc1N (single isomer, unassigned)")
"> 7.30"
>>> experimentalvalue("C[C@@H]1CCC[C@H]2CN(C(=O)C(=O)Nc3cncc(C(N)=O)c3)CC[C@H]21 (racemic)")
"6.30 to 7.30"
>>> experimentalvalue("NC(=O)c1cncc(NC(=O)C(=O)N2C[C@@H](CC(F)(F)F)CC[C@@H]2c2ccccc2)c1 (racemic)")
"6.30 to 7.30"
>>> experimentalvalue("COc1ncc(NC(=O)C(=O)N2C[C@H](C)CC[C@H]2c2ccc(-c3cncs3)cc2)cc1C(N)=O (single isomer, unassigned)")
"> 7.30"
>>> experimentalvalue("CC(=O)Nc1ccc([C@@H]2CC[C@@H](C)CN2C(=O)C(=O)Nc2cncc(C(N)=O)c2)s1 (single isomer, unassigned)")
"> 7.30"
>>> experimentalvalue("Cc1cc(NC(=O)C(=O)N2C[C@H]3CC[C@H](C3)[C@H]2c2cccs2)cnc1N (single isomer, unassigned)")
"< 6.30"
>>> experimentalvalue("Cc1cc(NC(=O)C(=O)N2C[C@H](C)CC[C@H]2c2cccc3c2CC(=O)N3)cnc1N (racemic)")
"> 7.30"
>>> experimentalvalue("Cc1cc(NC(=O)C(=O)N2C[C@@H](C)CC[C@@H]2c2ccc3sc(-c4nccn4C)nc3c2)cnc1N")
"> 7.30"
>>> experimentalvalue("C[C@@H]1CC[C@@H](c2ccc3c(c2)CCCO3)N(C(=O)C(=O)Nc2cncc(C(N)=O)c2)C1 (racemic)")
"6.30 to 7.30"
>>> experimentalvalue("CCc1cc(NC(=O)C(=O)N2C[C@@H](C)CC[C@@H]2c2ccc(N3CC[C@@H]4CCN(C)C[C@@H]4C3)cc2)cnc1N (single isomer, unassigned)")
"> 7.30"

Inquiry: What measured pIC50 goes with NC(=O)c1cncc(NC(=O)C(=O)N2CCC3C(CCCN3Cc3ccccc3)C2)c1 (stereo not shown) ?
Reply text: 6.30 to 7.30

Inquiry: Query Cc1cc(NC(=O)C(=O)N2C[C@H](C)CC[C@H]2c2ccc3sccc3c2)cnc1N (single isomer, unassigned) next
Reply text: < 6.30

Inquiry: Query COc1ccc([C@@H]2CC[C@@H](C)CN2C(=O)C(=O)Nc2cncc(C(N)=O)c2)cc1 (racemic) next
Reply text: 6.30 to 7.30

---

Target: PRMT5 (Homo sapiens, UniProt O14744)
Construct: purchased Viva (custom protein)
Sequence (O14744 whole entry): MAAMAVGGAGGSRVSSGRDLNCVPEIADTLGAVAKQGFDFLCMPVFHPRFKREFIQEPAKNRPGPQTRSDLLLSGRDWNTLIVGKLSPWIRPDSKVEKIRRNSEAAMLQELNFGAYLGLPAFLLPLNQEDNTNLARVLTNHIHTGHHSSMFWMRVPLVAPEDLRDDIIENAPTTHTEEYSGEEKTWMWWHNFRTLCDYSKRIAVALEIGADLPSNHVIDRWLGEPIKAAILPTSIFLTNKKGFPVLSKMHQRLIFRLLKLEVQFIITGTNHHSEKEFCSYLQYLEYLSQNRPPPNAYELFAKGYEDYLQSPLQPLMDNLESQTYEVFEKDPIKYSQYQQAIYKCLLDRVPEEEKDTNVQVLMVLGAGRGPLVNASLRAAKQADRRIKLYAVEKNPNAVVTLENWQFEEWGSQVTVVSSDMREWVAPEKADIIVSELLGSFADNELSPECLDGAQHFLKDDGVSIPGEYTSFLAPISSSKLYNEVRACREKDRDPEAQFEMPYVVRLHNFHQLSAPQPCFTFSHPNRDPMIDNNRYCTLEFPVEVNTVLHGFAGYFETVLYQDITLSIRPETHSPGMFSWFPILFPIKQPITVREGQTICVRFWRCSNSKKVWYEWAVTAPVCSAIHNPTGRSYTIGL
Sequence (Q9BQA1 whole entry partner): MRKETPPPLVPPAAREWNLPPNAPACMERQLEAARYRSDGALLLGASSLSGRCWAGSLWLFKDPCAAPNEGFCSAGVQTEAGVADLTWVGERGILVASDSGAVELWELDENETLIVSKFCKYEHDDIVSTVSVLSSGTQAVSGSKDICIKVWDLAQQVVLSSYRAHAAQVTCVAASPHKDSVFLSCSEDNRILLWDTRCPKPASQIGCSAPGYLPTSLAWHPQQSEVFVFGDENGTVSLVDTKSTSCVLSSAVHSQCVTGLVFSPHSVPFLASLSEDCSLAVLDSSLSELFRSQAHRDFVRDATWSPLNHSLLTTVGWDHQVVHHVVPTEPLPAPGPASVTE
Assay: PRMT5 biochemical IC50 assay with no cofactor
Settings: PRMT5, no cofactor; read-out: No Cofactor/rel IC50
pIC50: −log10 of the molar value.
quantityKind: pIC50

Examples with answers:
>>> experimentalvalue("CNC(=O)c1ccc([C@@H]2CC[C@@H](C)CN2C(=O)C(=O)Nc2cnc(OC)c(C(N)=O)c2)s1 (single isomer, unassigned)")
"< 6.30"
>>> experimentalvalue("Cc1n[nH]c2ccc([C@@H]3CC[C@@H](C)CN3C(=O)C(=O)Nc3cncc(C(N)=O)c3)cc12 (racemic)")
"6.30 to 7.30"

Attention now turns to another entry.
Inquiry: What measured pIC50 goes with CCc1cc(NC(=O)C(=O)N2C[C@H](C)CC[C@H]2c2ccc(N3CCOC4(CN(C)C4)C3)cc2)cnc1N (single isomer, unassigned) ?
Reply text: < 6.30

---

Target: PRMT5 (Homo sapiens, UniProt O14744)
Construct: purchased Viva (custom protein)
Assay: PRMT5 biochemical IC50 assay with MTA as cofactor
Conditions: PRMT5, MTA as cofactor; read-out: MTA IC50
pIC50: −log10 of the molar value.
Listed here: items and their measured pIC50.

Examples with answers:
>>> experimentalvalue("COc1cc(NC(=O)C(=O)N2C[C@@H](C)CC[C@@H]2c2ccc3sc(C4CCN(C)CC4)nc3c2)cnc1N")
"> 7.30"
>>> experimentalvalue("COc1ncc(NC(=O)C(=O)N2C[C@@H](C)CC[C@@H]2c2ccc3c(c2)OCCN3)cc1C(N)=O (racemic)")
"6.30 to 7.30"
>>> experimentalvalue("C[C@H]1CC[C@@H](C2CCCCC2)N(C(=O)C(=O)Nc2cncc(C(N)=O)c2)C1 (single isomer, unassigned)")
"> 7.30"
>>> experimentalvalue("Cc1cncc(NC(=O)C(=O)N2C[C@H](C)CC[C@H]2c2cccc(C)c2)c1 (racemic) [Compound 8]")
"6.30 to 7.30"
>>> experimentalvalue("CCc1cc(NC(=O)C(=O)N2C[C@H](C)CC[C@H]2c2ccc(N)nc2)cnc1N (single isomer, unassigned)")
"< 6.30"

Inquiry: What measured pIC50 goes with C[C@H]1CC[C@H](c2ccc3cncn3c2)N(C(=O)C(=O)Nc2cnc(N)c(C3CC3)c2)C1 (single isomer, unassigned) ?
Reply text: > 7.30

---

System: HAP1 MTAP-deleted cell line
Assay: Viability assay, MTAP-deleted cell line
Type: cell-based
Conditions: Homo sapiens, HAP1, viability assay, HAP1 MTAP-deleted; read-out: HAP1 MTAP deleted viability
pIC50: −log10 of the molar value.
quantityKind: pIC50

Examples with answers:
>>> experimentalvalue("CCc1cc(NC(=O)C(=O)N2C[C@@H](C)CC[C@@H]2c2ccc(-c3cncs3)cc2)cnc1N (single isomer, unassigned)")
"< 5.00"
>>> experimentalvalue("Cc1cc(NC(=O)C(=O)N2C[C@H](C)CC[C@H]2C2CCCNC2)cnc1N (mixture of isomers)")
"< 5.00"
>>> experimentalvalue("COc1ncc(NC(=O)C(=O)N2C[C@H](C)CC[C@H]2c2ccc3[nH]c(=O)ccc3c2)cc1C(N)=O (single isomer, unassigned)")
"< 5.00"
>>> experimentalvalue("CCc1cc(NC(=O)C(=O)N2C[C@@H](C)C(F)(F)C[C@@H]2c2ccc(F)c(F)c2)cnc1N (single isomer, unassigned)")
"> 6.00"
>>> experimentalvalue("Cc1cc(NC(=O)C(=O)N2C[C@@H](C)CC[C@@H]2c2ccc(-c3nccs3)cc2)cnc1N (single isomer, unassigned)")
"> 6.00"
>>> experimentalvalue("CCc1cc(NC(=O)C(=O)N2C[C@H](C)CC[C@H]2c2ccc(C(=O)NC)s2)cnc1N (single isomer, unassigned)")
"< 5.00"

Inquiry: What measured pIC50 goes with C[C@H]1CN(C(=O)C(=O)Nc2cncc(C(N)=O)c2)[C@H](c2ccc(F)cc2)CC1(F)F (single isomer, unassigned) ?
Reply text: 5.00 to 6.00

Inquiry: Query COc1ncc(NC(=O)C(=O)N2C[C@H](C)CC[C@H]2c2ccc(C(N)=O)s2)cc1C(N)=O (single isomer, unassigned) next
Reply text: < 5.00

Inquiry: Query Cc1cc(NC(=O)C(=O)N2C[C@@H](C)C(F)(F)C[C@@H]2c2ccc(F)cc2)cnc1N (single isomer, unassigned) next
Reply text: > 6.00

Inquiry: Query C[C@H]1CC[C@H](c2ccc(S(N)(=O)=O)cc2)N(C(=O)C(=O)Nc2cncc(C(N)=O)c2)C1 (single isomer, unassigned) next
Reply text: < 5.00

Inquiry: Query CCc1cc(NC(=O)C(=O)N2C[C@H](C)CC[C@H]2c2ccc3[nH]cnc3c2)cnc1N (single isomer, unassigned) next
Reply text: < 5.00

Inquiry: Query CC(=O)Nc1ccc([C@H]2CC[C@H](C)CN2C(=O)C(=O)Nc2cnc(N)c(C)c2)s1 (single isomer, unassigned) next
Reply text: < 5.00

Inquiry: Query COc1ncc(NC(=O)C(=O)N2C[C@@H](C)CC[C@@H]2c2ccc3c(c2)CNC3=O)cc1C(N)=O (single isomer, unassigned) next
Reply text: < 5.00

Inquiry: Query [H][C@@]1([C@]2([H])C[C@@]3(C[C@H](O)C3)C2)CC[C@@H](C)CN1C(=O)C(=O)Nc1cnc(N)c(C)c1 (mixture of isomers) next
Reply text: < 5.00

Inquiry: Query Cc1ncc(NC(=O)C(=O)N2C[C@H](C)CC[C@H]2c2ccc3c(c2)CCC(=O)N3)cc1C(F)F (racemic) next
Reply text: > 6.00

Inquiry: Query Cc1ccc([C@H]2CC[C@H](C)CN2C(=O)C(=O)Nc2cnc(N)c(C)c2)cn1 (single isomer, unassigned) next
Reply text: < 5.00

Inquiry: Query Cc1cc(NC(=O)C(=O)N2CC[C@@H](C(=O)C(C)C)C[C@H]2c2ccc3c(c2)CCC(=O)N3)cnc1N (racemic) next
Reply text: 5.00 to 6.00

Inquiry: Query Cc1cc(NC(=O)C(=O)N2C[C@@H](C)CC[C@@H]2c2ccc3[nH]ncc3n2)cnc1N (single isomer, unassigned) next
Reply text: < 5.00

Inquiry: Query C[C@@H]1CC[C@@H](c2ccc(F)cc2)N(C(=O)C(=O)Nc2cnc(N)c(C(F)(F)F)c2)C1 (racemic) next
Reply text: 5.00 to 6.00
